System: Calf thymus DNA
Assay: Binding affinity to calf thymus DNA assessed as change on melting temperature (reference value: 76 degC)
Details: Bos taurus
observation type: Tm (°C)

{"entry smiles": "O=C1[C@H]2O[C@H](OCCC/C=C/CCCO[C@H]3O[C@H](C(=O)N(Cc4cnc5ccccc5n4)Cc4ccc(cc4)CN1Cc1cnc4ccccc4n1)[C@@H](O)[C@H](O)[C@H]3O)[C@H](O)[C@@H](O)[C@@H]2O", "unit text": "°C", "Tm": 79}
{"entry smiles": "C=CCCCO[C@H]1O[C@H](C(=O)N(Cc2ccc(CN(Cc3cnc4ccccc4n3)C(=O)[C@H]3O[C@H](OCCCC=C)[C@H](O)[C@@H](O)[C@@H]3O)cc2)Cc2cnc3ccccc3n2)[C@@H](O)[C@H](O)[C@H]1O", "unit text": "°C", "Tm": 81}
{"entry smiles": "CS[C@H]1SC[C@H]2C(=O)N(C)[C@@H](C(C)C)C(=O)OC[C@@H](NC(=O)c3cnc4ccccc4n3)C(=O)N[C@@H](C)C(=O)N(C)[C@@H]1C(=O)N(C)[C@@H](C(C)C)C(=O)OC[C@@H](NC(=O)c1cnc3ccccc3n1)C(=O)N[C@@H](C)C(=O)N2C", "unit text": "°C", "Tm": 79}
{"entry smiles": "O=C1[C@H]2O[C@H](OC/C=C/CO[C@H]3O[C@H](C(=O)N(Cc4cnc5ccccc5n4)Cc4ccc(cc4)CN1Cc1cnc4ccccc4n1)[C@@H](O)[C@H](O)[C@H]3O)[C@H](O)[C@@H](O)[C@@H]2O", "unit text": "°C", "Tm": 78}
{"entry smiles": "C=CCO[C@H]1O[C@H](C(=O)N(Cc2ccc(CN(Cc3cnc4ccccc4n3)C(=O)[C@H]3O[C@H](OCC=C)[C@H](O)[C@@H](O)[C@@H]3O)cc2)Cc2cnc3ccccc3n2)[C@@H](O)[C@H](O)[C@H]1O", "unit text": "°C", "Tm": 79}

Data provenance is ChEMBL document CHEMBL1641499.
